# experimentalSystem: MMP-2 (Homo sapiens, UniProt P08253)
# Construct: purchased SIGMA PF023
# Sequence (P08253 110-660): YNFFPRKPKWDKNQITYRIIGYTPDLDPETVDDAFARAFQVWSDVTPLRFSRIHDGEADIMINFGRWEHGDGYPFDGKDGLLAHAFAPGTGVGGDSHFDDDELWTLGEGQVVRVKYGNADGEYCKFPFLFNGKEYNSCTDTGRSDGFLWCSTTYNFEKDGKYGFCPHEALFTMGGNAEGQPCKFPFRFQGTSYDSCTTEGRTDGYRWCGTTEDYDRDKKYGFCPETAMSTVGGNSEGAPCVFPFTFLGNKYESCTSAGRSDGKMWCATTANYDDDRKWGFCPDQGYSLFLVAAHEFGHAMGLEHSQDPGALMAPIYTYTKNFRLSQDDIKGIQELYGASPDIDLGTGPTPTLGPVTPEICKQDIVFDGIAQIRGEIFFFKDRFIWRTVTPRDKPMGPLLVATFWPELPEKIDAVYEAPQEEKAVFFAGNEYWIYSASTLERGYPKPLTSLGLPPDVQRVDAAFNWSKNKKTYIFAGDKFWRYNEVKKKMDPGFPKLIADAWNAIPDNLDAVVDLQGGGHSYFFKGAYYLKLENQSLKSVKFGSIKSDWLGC
# assayRemarks: FRET peptide cleavage efficiency with MMP-2
# Format: biochemical
# measurementConditions: t = 120 min; standard conditions (Table 8)
Square brackets hold non-standard residues; d marks the D form. Ends that are not written are not given here. Tyr(3-NO2) = N[C@@H](Cc1ccc(O)c([N+](=O)[O-])c1)C(=O)O; Nle = CCCC[C@H](N)C(=O)O; 2Abz = Nc1ccccc1C(=O)O
So basically, if % cleavage MMP-2 t = 120 min comes in under 90% it's TRUE, and if it's 90% or more it's FALSE.

> print(dat)
                                  substance  assignedcategory
1  SGRVAPYMLQG ([2Abz]SGRVAPYMLQG[Tyr(3-NO2)]-NH2) [LNK042]             FALSE
2  SGRVYMLQG ([2Abz]SGRVYMLQG[Tyr(3-NO2)]-NH2) [LNK044]              TRUE
3  RGRKPQPLVD ([2Abz]RGRKPQPLVD[Tyr(3-NO2)]-NH2) [LNK039]              TRUE
4  RGRKSPY-Nle-LQG ([2Abz]RGRKSPY[Nle]LQG[Tyr(3-NO2)]-NH2) [LNK038]              TRUE
